- protocolDetails: NCI Yeast Anticancer Drug Screen. Data for the mec2-1 strain (AID 157)
- experimentalSetup: S. cerevisiae mec2-1 strain, at 50.0 µM (retest, dose inferred, filed as 5.0)
The panel holds about 79,000 compounds, 15% with a hit somewhere; the sample as a whole holds those more often. The source made the active and inactive calls. Rule as the data show it: active = growth inhibition above about 70%; inactive = the rest.
Choose the fitting class; nothing outside active, inactive is accepted.

Consider the worked cases shown below.
Cc1ccc(C(=O)CCl)o1	active
CC1(C)C(=O)C=CC2(C)C1CC(O)C1(C)C2CCC2(C)C(c3ccoc3)OC(=O)C3OC321 (stereo unspecified)	inactive

// return assay outcome for `O=C(N/N=C/c1cc(Cl)cc(Cl)c1[O-])c1ccccc1O.O=C(N/N=C/c1cc(Cl)cc(Cl)c1[O-])c1ccccc1O.[Mn+2]`
active

// return assay outcome for `C=CC[N+]12CN3CN(CN(C3)C1)C2`
active

// return assay outcome for CCC[CH2][Sn]([Cl])([CH2]C)[O][Sn]([Cl])([CH2]C)[CH2]CCC (stereo unspecified)
active

// return assay outcome for CCC(C)N1CN(c2ccccc2)C2(CCN(CCCC3(c4ccc(F)cc4)OCCO3)CC2)C1=O (stereo unspecified)
active

====

- protocolDetails: NCI Yeast Anticancer Drug Screen. Data for the cln2 rad14 strain (AID 165);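 also: 0% = growth equal to vehicle treated cultures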
- experimentalSetup: S. cerevisiae cln2 rad14 strain, at 50.0 µM
This is part of a sample that, as a whole, favours compounds with a hit. Of some 79,000 tested, about 15% had one in any assay. Active and inactive are the calls of the source. Rule as the data show it: active = growth inhibition above about 70%; inactive = the rest.
Choose the fitting class; nothing outside 1 = active, 0 = inactive is accepted.

Consider the worked cases shown below.
O=P(CP(=O)(c1ccccc1)c1ccccc1)(c1ccccc1)c1ccccc1.[CH3][Sn]([CH3])([Cl])[Cl]	0
O/N=C/c1ccc2c(c1)OCO2	0
CC(C)=[CH][Sb]([Br])([CH]=C(C)C)([CH]=C(C)C)[CH]=C(C)C	0

// return assay outcome for `C=CCC[CH2][Sn]([c]1ccccc1)([c]1ccccc1)[c]1ccccc1`
1

// return assay outcome for O=C(O)C1C2c3ccccc3C(c3ccccc32)C1Br (centres undefined)
0

// return assay outcome for Cc1cccc(C)c1NC(=O)/C(CC(=O)CC(c1ccccc1)c1c(O)c2ccccc2oc1=O)=N/O (centres undefined)
0

// return assay outcome for COc1cc(C2c3cc4c(cc3[C@@H](Nc3ccc(N)cc3)C3COC(=O)[C@H]23)OCO4)cc(OC)c1O (some centres undefined)
1

// return assay outcome for CCCCCCCC[N+](CCCC)(CCCC)CCCC (tested in a mixture with another compound)
1

// return assay outcome for `Cc1nc2ccccc2cc1C[N+]12CN3CN(CN(C3)C1)C2`
0

====

# growth inhibition annotations
- protocolDetails: NCI Yeast Anticancer Drug Screen. Data for the rad52 strain (AID 147);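 also: 0% = growth of vehicle-treated control cultures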
- experimentalSetup: S. cerevisiae rad52 mutant growth inhibition; at 100.0 µM; hits give high values
This is part of a sample that, as a whole, favours compounds with a hit. Of some 79,000 tested, about 15% had one in any assay.
Return type: number; implicit unit %.

Worked examples follow.
CCC1(O)C(=O)OCc2c1cc1n(c2=O)Cc2c-1nc1ccccc1c2OC (stereo unspecified)	90
C/C(CCl)=N/NC1=NC(c2ccccc2Cl)P(=O)(NCCCNP2(=O)SC(N/N=C(/C)CCl)=NC2c2ccccc2Cl)S1 (stereo unspecified)	8
O=C1C=CC(=O)C1(Br)Br	99
Nc1nc(-c2ccccc2)c(-c2ccccc2)[se]1	28
c1ccc2cc3n[se]nc3cc2c1	96
C/C(=N\O)c1ccc2ccc3ccccc3c2c1	95

Look up growth inhibition of `Br[Se]c1ccccn1` and report it.
98

Look up growth inhibition of `O=P(Oc1ccc(Cl)cc1)(Oc1ccc(Cl)cc1)N1CC1` and report it.
53

====

- protocolDetails: NCI Yeast Anticancer Drug Screen. Data for the cln2 rad14 strain (AID 165);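 also: 0% = growth equal to vehicle treated cultures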
- experimentalSetup: S. cerevisiae cln2 rad14 strain, at 50.0 µM, hits give high values
About 79,000 compounds went through this panel and 15% of them were active in at least one assay; those are over-represented in the sample as a whole.
attributeMeasured: growth inhibition (%)
Return type: number; implicit unit %.

Worked examples follow.
Ic1cccc2c1[se]c1ccccc12	-27.8
Oc1c(Cl)cc(-c2cc(Cl)c(O)c(Cl)c2)cc1Cl	87.6
CC1CCS(=O)(=O)CC1.[Cl][Hg][Cl]	99.3
O=C(c1ccccc1)c1c(CC(O)c2ccccn2)n(C(=O)c2ccccc2)c2ccccc12 (stereo not drawn)	65.7

Look up growth inhibition of `O=C(CCl)c1ccc(O)cc1` and report it.
89.2

Look up growth inhibition of Cc1ccc(C(Cc2ccc(N3C(N)=NC(N)=NC3(C)C)cc2)C(=O)Nc2ccc(S(=O)(=O)F)cc2)cc1 (stereo not drawn) and report it.
98.8

Look up growth inhibition of CCOC(=O)C1C2OC(=O)C(C(=O)C2CN(CCCl)CCCl)C1C1CC=C(CC2=CCC(C3C4C(=O)OC(C(CN(CCCl)CCCl)C4=O)C3C(=O)OCC)CC2)CC1 (stereo not drawn) and report it.
54.1

Look up growth inhibition of `O=C1CCC[N]1[Hg][N]1CCCC1=O` and report it.
92

Look up growth inhibition of `Cc1cc([N+](=O)[O-])c(O)c([N+](=O)[O-])c1C` and report it.
45.4

Look up growth inhibition of `O=C1C(=O)c2ccccc2-c2ccccc21.O=C1C(=O)c2ccccc2-c2ccccc21.[Hg]` and report it.
29.8

Look up growth inhibition of CCC1CC2C3Cc4ccc(OC)c(O)c4C2(CCN3C)CC1=O (stereo not drawn) and report it.
-5.3

Look up growth inhibition of CCC[CH2][Sn]1([CH2]CCC)[O]C(=O)C(C(C)C)N=Cc2ccccc2[O]1 (stereo not drawn) and report it.
91.6

====

# growth inhibition annotations
- protocolDetails: NCI Yeast Anticancer Drug Screen. Data for the rad14 strain (AID 159);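 also: 0% = growth of vehicle-treated control cultures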
- experimentalSetup: S. cerevisiae rad14 strain growth inhibition; at 3.7 µM; hits give high values
The panel holds about 79,000 compounds, 15% with a hit somewhere; the sample as a whole holds those more often.
Return type: number; implicit unit %.

COC(=O)C1c2cc3c(c(O)c2C(O)CC1(C)O)C(=O)c1c(O)cc2c(c1C3=O)OC1OC2(C)C(O)C(N(C)C)C1O (stereo not drawn)	16
COc1cc2ccccc2c2cc([N+](=O)[O-])oc12	93
CC1=C2C(=C[C@@](C)(CO)[C@@H]2O)C(=O)[C@](C)(O)C12CC2	-1
CC[C@@]1(O)C(=O)OCc2c1cc1n(c2=O)Cc2cc3ccccc3nc2-1	55

Look up growth inhibition of CCNC(=O)OCC1C2=C(C(=O)C(C)=C(N)C2=O)N2CC3C(N3C)C12OC (stereo not drawn) and report it.
-5

Look up growth inhibition of `Nc1ccccc1C(=O)OCCc1ccccc1` and report it.
-10

Look up growth inhibition of `COc1cc(O)c2c(O)c3c(c4c2c1[C@]1(C4)C(C)=CCCC1(C)C)[C@H](O)[C@@]1(O)CC(=O)C(C(N)=O)=C(O)[C@@]1(O)C3=O` and report it.
50

Look up growth inhibition of COc1cccc2c1C(=O)c1c(O)c3c(c(O)c1C2=O)C[C@@](O)(/C(C)=N\O)C[C@@H]3OC1CC(N)C(O)C(C)O1 (stereo partly drawn) and report it.
3

Look up growth inhibition of `O=[N+]([O-])c1ccc(N2CCC(CCCC3CCN(c4ccc([N+](=O)[O-])cc4[N+](=O)[O-])CC3)CC2)c([N+](=O)[O-])c1` and report it.
-27

Look up growth inhibition of `CC(C)(C)c1cc([N+](=O)[O-])cc([N+](=O)[O-])c1O` and report it.
-12

Look up growth inhibition of C[C@]12CCC(=O)C=C1CC[C@@H]1C2CC[C@@]2(C)C1CC[C@@H]2OC(=O)C12OC1CCC2=O (stereo partly drawn) and report it.
-11

Look up growth inhibition of O=C1OC2C(O1)C1(Cl)C(Cl)=C(Cl)C2(Cl)C1(Cl)Cl (stereo not drawn) and report it.
-6

Look up growth inhibition of CCC1(OC(=O)CN)C(=O)OCc2c1cc1n(c2=O)Cc2cc3ccccc3nc2-1 (stereo not drawn) and report it.
23

Look up growth inhibition of `CC(=O)O/C(=C1\C[C@H]2[C@@H]3CC=C4C[C@@H](OC(C)=O)CC[C@]4(C)[C@H]3CC[C@]2(C)C1=O)C(F)(F)F` and report it.
-4

Look up growth inhibition of `CNCC(O)c1ccc(O)c(O)c1.[Pt].c1ccc([PH+](c2ccccc2)c2ccccc2)cc1.c1ccc([PH+](c2ccccc2)c2ccccc2)cc1` and report it.
-3

Look up growth inhibition of `CC[C@@]1(O)C(=O)OCc2c1cc1n(c2=O)Cc2cc3c(NC(=O)CN)cccc3nc2-1` and report it.
-4

Look up growth inhibition of CC(Cc1ccccc1)N(C)Cc1nc(C2CCC([N+](=O)[O-])O2)no1 (stereo not drawn) and report it.
14

Look up growth inhibition of `CCCCCNC(=O)c1c(O)[nH]c(=S)[nH]c1=O` and report it.
64

Look up growth inhibition of `C[N+](CCCl)(CCCl)Cc1cccc2cccc([N+](=O)[O-])c12` and report it.
-1

Look up growth inhibition of CC12CCC(C1)C(C)(C)C2OC(=O)c1ccccc1N (stereo not drawn) and report it.
2

Look up growth inhibition of `CO[C@H](/C(C)=C/C=C/C(C)=C/c1coc(C)n1)[C@H](C)[C@H]1C[C@@H](O)[C@@]2(C)O[C@H]2/C=C/[C@@H](C)[C@@H]2C[C@@H](CC(=O)O2)C[C@H]2O[C@@H]2C(=O)O1` and report it.
-17

Look up growth inhibition of `O=S(=O)(O)c1ccc(Cl)cc1.[Cd]` and report it.
18

Look up growth inhibition of `C/C(=N\O)c1ccc2ccc3ccccc3c2c1` and report it.
12

Look up growth inhibition of CCCCN(CCCC)CC(C(C)=O)C(c1ccccc1)c1c(O)c2ccccc2oc1=O (stereo not drawn) and report it.
3

Look up growth inhibition of `CC[PH+](CC)CC.CC[PH+](CC)CC.[Au]` and report it.
30

Look up growth inhibition of `C=CC[N+]12CN3CN(CN(C3)C1)C2` and report it.
-34

Look up growth inhibition of O=S(=O)(O)/C(=C\c1ccccc1)c1ccccc1 (tested in a mixture with another compound) and report it.
0

Look up growth inhibition of OCC(O)C(O)CO (stereo not drawn) (tested in a mixture with another compound) and report it.
-5
